measuredTarget: OsWRKY34 (Oryza sativa, UniProt Q0JBA9 1-250)
Sequence (Q0JBA9 entry or part of it): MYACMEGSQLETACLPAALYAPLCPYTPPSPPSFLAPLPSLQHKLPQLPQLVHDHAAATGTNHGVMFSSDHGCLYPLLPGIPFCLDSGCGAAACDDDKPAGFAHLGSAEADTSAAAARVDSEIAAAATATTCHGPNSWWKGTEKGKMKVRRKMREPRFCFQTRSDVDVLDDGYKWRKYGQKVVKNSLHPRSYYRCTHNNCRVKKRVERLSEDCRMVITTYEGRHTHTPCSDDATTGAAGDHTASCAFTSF
methodNotes: protein-binding microarray (RPBM); PBS, 2% BSA, 51.3 ng/ul salmon testes DNA, 50 uM zinc acetate, 200 nM TF, 25 C, 1 h; high values mean tight binding
measurementConditions: protein: recombinant; tags: N-terminal polyhistidine and DsRed monomer fusion (pET32a); label: CyDye5-dUTP incorporated in the synthesized complementary strand; 3' TTTTT single-stranded linker to array surface; dsDNA, one strand shown
In all, about 68,000 sequences were measured (“fluorescence intensity (a.u.)”: median about 9,100, highest 2% from about 16,000 on). The full list was thinned out, with the highest values kept by preference.
quantityKind: binding signal

Solved entries:
CCTGCCGTTTTCTTTTTCTTTTTCTTTCCTTTTCCTTTTTCGGAGTCACCTAGTGCAG	17000 fluorescence intensity (a.u.)
CTTTCTTTTTCCTTCTCTCTCTCTTTTCTTTCTTTTCTTTCGGAGTCACCTAGTGCAG	13600 fluorescence intensity (a.u.)
CATTTTTGTTTTTTACTGGGAGATTTTTTTTCCTTTTTCTCGGAGTCACCTAGTGCAG	11200 fluorescence intensity (a.u.)

For ATTCTCTAAATGTTTGACGCTGTTGACTTTTTAAAACATGCGGAGTCACCTAGTGCAG , write its binding signal.
16600 fluorescence intensity (a.u.)

For AGTTTTGTTTCTTTCCTGTTCACAGTTCACCTTTGCCTTTCGGAGTCACCTAGTGCAG , write its binding signal.
12400 fluorescence intensity (a.u.)
